# assaySystem: recombinant soluble homotrimeric HA, A/duck/Yangzhou/02/2005 (H8N4) (influenza A virus A/duck/Yangzhou/02/2005 (H8N4))
# protocolSummary: microarray, trimeric HA, transfection supernatant
# testSettings: remark: other sources report otherwise
Lab note: cut-off is 10000 RLU. Strictly less in Trimeric HA Binding RLU is true. Exactly 10000 RLU or more is false.

These solved cases illustrate the format of a correct answer.
TCN-547 (5092_F11) (antibody, V domains shown) VH: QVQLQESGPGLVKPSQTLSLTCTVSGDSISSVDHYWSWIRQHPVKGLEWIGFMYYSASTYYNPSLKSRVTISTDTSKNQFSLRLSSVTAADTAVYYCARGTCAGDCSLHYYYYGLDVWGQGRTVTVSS VL: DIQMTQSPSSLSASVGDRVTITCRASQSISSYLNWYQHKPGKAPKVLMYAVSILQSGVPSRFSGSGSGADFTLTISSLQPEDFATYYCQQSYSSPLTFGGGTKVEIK :: true
TCN-543 (5081_G23) (antibody, V domains shown) VH: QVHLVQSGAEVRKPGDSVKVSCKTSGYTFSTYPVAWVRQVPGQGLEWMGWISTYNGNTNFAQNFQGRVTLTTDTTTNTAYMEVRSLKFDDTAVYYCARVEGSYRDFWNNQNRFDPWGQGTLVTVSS VL: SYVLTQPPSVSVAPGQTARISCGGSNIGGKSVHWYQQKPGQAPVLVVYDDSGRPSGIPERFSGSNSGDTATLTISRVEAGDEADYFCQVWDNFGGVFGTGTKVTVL :: false
TCN-552 (5249_I23) (antibody, V domains shown) VH: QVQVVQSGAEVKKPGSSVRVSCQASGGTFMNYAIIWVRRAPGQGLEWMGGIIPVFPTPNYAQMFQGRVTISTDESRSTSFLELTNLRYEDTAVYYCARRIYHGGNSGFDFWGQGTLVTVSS VL: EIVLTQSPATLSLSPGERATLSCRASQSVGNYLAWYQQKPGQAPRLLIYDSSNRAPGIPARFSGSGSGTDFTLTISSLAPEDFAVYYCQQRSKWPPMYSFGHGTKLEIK :: false
TCN-537 (3194_D21) (antibody, V domains shown) VH: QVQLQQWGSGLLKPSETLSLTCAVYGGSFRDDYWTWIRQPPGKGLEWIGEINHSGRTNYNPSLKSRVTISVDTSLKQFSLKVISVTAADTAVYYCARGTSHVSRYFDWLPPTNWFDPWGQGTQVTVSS VL: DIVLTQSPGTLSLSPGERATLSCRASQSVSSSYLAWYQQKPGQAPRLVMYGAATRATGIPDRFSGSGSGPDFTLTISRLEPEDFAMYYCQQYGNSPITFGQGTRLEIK :: false

Trimeric HA Binding RLU under 10000 RLU? Item: TCN-557 (5081_A04) (antibody, V domains shown) VH: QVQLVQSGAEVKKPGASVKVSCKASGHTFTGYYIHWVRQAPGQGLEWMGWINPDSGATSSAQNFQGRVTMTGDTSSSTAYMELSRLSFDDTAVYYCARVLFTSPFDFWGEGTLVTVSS VL: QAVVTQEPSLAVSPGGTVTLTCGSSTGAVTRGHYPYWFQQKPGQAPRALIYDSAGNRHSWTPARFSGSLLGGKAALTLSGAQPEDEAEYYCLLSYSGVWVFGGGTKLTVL
false
